Reference source: the kinase profiling compilation of Christmann-Franck et al. (2016)

Entries and their kinase still bound, per cent of control values follow.
# TARGET UNDER TEST: MAP3K10 (human) (UniProt Q02779)
# Sequence (Q02779 whole entry, looked up): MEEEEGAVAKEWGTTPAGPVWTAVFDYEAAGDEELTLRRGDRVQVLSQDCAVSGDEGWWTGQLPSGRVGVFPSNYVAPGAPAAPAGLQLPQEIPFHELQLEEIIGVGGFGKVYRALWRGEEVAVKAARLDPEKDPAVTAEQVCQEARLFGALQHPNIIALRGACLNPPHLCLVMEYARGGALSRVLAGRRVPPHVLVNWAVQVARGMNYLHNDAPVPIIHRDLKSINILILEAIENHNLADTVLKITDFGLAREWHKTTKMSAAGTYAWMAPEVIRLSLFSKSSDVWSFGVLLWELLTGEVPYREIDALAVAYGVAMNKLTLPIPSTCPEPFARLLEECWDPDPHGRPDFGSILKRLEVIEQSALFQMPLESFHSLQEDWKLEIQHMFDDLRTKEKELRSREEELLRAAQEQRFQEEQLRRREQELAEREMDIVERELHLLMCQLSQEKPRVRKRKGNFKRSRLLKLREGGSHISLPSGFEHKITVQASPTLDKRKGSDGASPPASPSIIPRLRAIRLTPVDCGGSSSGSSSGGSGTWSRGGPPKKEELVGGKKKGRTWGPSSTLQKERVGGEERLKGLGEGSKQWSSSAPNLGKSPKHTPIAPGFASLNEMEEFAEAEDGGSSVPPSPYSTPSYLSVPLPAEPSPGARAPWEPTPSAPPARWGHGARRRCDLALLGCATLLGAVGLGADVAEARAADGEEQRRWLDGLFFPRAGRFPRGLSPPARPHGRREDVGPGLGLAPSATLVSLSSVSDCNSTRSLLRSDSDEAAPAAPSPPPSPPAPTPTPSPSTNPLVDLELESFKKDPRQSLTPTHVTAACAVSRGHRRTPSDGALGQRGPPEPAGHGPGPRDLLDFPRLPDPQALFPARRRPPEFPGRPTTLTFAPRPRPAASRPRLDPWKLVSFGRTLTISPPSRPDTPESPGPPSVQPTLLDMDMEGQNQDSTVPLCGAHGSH
# ASSAY INFO: KINOMEscan competition binding
# CONDITION SET: compound 10.0 µM
Please give a number only; it is taken to be in %.

Previously resolved entries follow.
> print(dat)
                                test.smiles  readout.units  measured
1  C=CC(=O)Nc1cc(NC(=O)c2ccc(C)c(NC(=O)c3ccno3)c2)cc(C(F)(F)F)c1              %       100
2    N#Cc1c(NC(=O)c2cccc3ccccc23)sc2c1CCCC2              %       100
3  C=CC(=O)Nc1cccc(Nc2nc(N[C@H]3CC[C@H](N(C)C)CC3)nc3c2ncn3C(C)C)c1              %        84
4  COc1cc(C(=O)NC2CCN(C)CC2)ccc1Nc1ncc2c(n1)N(C1CCCC1)CCC(=O)N2C(C)C              %       100
5  CCC(=O)N1CCN(c2ccc(-n3c(=O)ccc4cnc5ccc(-c6cnc7ccccc7c6)cc5c43)cc2C(F)(F)F)CC1              %        99

Now examine the next entry.
Q: Need kinase still bound, per cent of control, item "C[C@@H](Oc1cc(-n2cnc3ccc(CN4CCN(C)CC4)cc32)sc1C(N)=O)c1ccccc1C(F)(F)F"
Result: 92

====

# TARGET UNDER TEST: STK3 (human) (UniProt Q13188)
# Sequence (Q13188 whole entry, looked up): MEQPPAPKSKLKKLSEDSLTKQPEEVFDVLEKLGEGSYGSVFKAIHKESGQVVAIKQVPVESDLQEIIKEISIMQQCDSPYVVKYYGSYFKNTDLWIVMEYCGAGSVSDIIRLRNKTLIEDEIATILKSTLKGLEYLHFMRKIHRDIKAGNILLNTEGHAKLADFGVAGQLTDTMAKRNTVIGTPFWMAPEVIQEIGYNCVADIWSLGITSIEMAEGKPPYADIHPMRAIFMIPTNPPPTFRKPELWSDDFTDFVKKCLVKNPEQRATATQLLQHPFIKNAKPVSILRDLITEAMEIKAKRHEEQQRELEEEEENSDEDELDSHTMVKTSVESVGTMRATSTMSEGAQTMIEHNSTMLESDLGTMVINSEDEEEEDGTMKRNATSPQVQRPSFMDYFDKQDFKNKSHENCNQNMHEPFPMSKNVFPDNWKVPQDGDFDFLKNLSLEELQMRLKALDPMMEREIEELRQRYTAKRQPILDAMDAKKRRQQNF
# ASSAY INFO: KINOMEscan competition binding
# CONDITION SET: compound 10.0 µM
ENDPOINT: kinase still bound, per cent of control

In the examples that follow, each entry is paired with its recorded kinase still bound, per cent of control.
> print(dat)
                                test.smiles  measured
1  COc1cc(N2CCN(C)CC2)ccc1Nc1nc(N)c(C(=O)c2c(Cl)cccc2Cl)s1       85%
2  O=C(O)c1ccc(Nc2ncc3c(n2)-c2ccc(Cl)cc2C(c2c(F)cccc2F)=NC3)cc1       48%

We now examine a further compound.
Q: If you can, please state the reported kinase still bound, per cent of control value of "CCCS(=O)(=O)Nc1ccc(F)c(C(=O)c2c[nH]c3ncc(-c4ccc(Cl)cc4)cc23)c1F" .
Result: 1.9%

====

# Tested on: EGFR (human), P00533 [L861Q]
# ASSAY INFO: KINOMEscan competition binding
# CONDITION SET: compound 10.0 µM
ENDPOINT: kinase still bound, per cent of control

Below, 3 compounds whose answers are already recorded.
> print(dat)
                                test.smiles                                 endpoint  measured
1  Cc1cn(-c2cc(C(=O)Nc3ccc(C)c(NC(=O)c4ccno4)c3)cc(C(F)(F)F)c2)cn1  kinase still bound, per cent of control      100%
2  O=C1NC(=O)/C(=C/c2ccc3nccc(-c4ccncc4)c3c2)S1  kinase still bound, per cent of control       87%
3  Cc1ccc(NC(=O)c2cccc(C(C)(C)C#N)c2)cc1Nc1ccc2ncn(C)c(=O)c2c1  kinase still bound, per cent of control       34%

Let's switch to this compound now.
Q: Report kinase still bound, per cent of control for "CNC(=O)c1ccc(Nc2cc(Nc3ccccc3S(=O)(=O)C(C)C)c3cc[nH]c3n2)nc1" please.
Result: 100%
